- assay.details: Photostability assessed as residual absorbance at 2.5 mW/cm2 irradiation for 60 mins
- Type: physicochemical
- test.conditions: read-out: Stability
Entries and their remaining at 1 h
# number then unit; no other words

Would you please look over these solved cases?
Cc1cc(C)c(-c2c3nc(c(-c4ccc(C(=O)NCCCCC(=O)N(CCCN)CCCCNCCCN)cc4)c4ccc([nH]4)c(-c4c(C)cc(C)cc4C)c4nc(c(-c5ccc(C(=O)NCCCCC(=O)N(CCCN)CCCCNCCCN)cc5)c5ccc2[nH]5)C=C4)C=C3)c(C)c1 : 98%
C=CC1=C(C)c2cc3[nH]c(cc4nc(cc5[nH]c(cc1n2)c(C)c5CCC(=O)NCCCCC(=O)N(CCCN)CCCCN)C(CCC(=O)NCCCCC(=O)N(CCCN)CCCCN)=C4C)c(C)c3C=C : 97%
NCCCCN(CCCN)C(=O)CCCCNC(=O)c1ccc(-c2c3nc(c(-c4ccc(C(=O)NCCCCC(=O)N(CCCN)CCCCN)cc4)c4ccc([nH]4)c(-c4ccc(C(=O)NCCCCC(=O)N(CCCN)CCCCN)cc4)c4nc(c(-c5ccc(C(=O)NCCCCC(=O)N(CCCN)CCCCN)cc5)c5ccc2[nH]5)C=C4)C=C3)cc1 : 97%
NCCCNCCCCN(CCCN)C(=O)CCCCNC(=O)c1ccc(-c2c3nc(c(-c4ccc(C(=O)NCCCCC(=O)N(CCCN)CCCCNCCCN)cc4)c4ccc([nH]4)c(-c4ccc(C(=O)NCCCCC(=O)N(CCCN)CCCCNCCCN)cc4)c4nc(c(-c5ccc(C(=O)NCCCCC(=O)N(CCCN)CCCCNCCCN)cc5)c5ccc2[nH]5)C=C4)C=C3)cc1 : 97%
Cc1cc(C)c(-c2c3nc(c(-c4ccc(C(=O)NCCCCC(=O)N(CCCN)CCCCN)cc4)c4ccc([nH]4)c(-c4c(C)cc(C)cc4C)c4nc(c(-c5ccc(C(=O)NCCCCC(=O)N(CCCN)CCCCN)cc5)c5ccc2[nH]5)C=C4)C=C3)c(C)c1 : 99%

Now consider the entry below.
// returns reported remaining at 1 h for input C=CC1=C(C)c2cc3[nH]c(cc4nc(cc5[nH]c(cc1n2)c(C)c5CCC(=O)NCCCCC(=O)N(CCCN)CCCCNCCCN)C(CCC(=O)NCCCCC(=O)N(CCCN)CCCCNCCCN)=C4C)c(C)c3C=C
97%
